- Measured target: PDGFRα (Homo sapiens (Human), UniProt P16234)
- Sequence (P16234 24-1089): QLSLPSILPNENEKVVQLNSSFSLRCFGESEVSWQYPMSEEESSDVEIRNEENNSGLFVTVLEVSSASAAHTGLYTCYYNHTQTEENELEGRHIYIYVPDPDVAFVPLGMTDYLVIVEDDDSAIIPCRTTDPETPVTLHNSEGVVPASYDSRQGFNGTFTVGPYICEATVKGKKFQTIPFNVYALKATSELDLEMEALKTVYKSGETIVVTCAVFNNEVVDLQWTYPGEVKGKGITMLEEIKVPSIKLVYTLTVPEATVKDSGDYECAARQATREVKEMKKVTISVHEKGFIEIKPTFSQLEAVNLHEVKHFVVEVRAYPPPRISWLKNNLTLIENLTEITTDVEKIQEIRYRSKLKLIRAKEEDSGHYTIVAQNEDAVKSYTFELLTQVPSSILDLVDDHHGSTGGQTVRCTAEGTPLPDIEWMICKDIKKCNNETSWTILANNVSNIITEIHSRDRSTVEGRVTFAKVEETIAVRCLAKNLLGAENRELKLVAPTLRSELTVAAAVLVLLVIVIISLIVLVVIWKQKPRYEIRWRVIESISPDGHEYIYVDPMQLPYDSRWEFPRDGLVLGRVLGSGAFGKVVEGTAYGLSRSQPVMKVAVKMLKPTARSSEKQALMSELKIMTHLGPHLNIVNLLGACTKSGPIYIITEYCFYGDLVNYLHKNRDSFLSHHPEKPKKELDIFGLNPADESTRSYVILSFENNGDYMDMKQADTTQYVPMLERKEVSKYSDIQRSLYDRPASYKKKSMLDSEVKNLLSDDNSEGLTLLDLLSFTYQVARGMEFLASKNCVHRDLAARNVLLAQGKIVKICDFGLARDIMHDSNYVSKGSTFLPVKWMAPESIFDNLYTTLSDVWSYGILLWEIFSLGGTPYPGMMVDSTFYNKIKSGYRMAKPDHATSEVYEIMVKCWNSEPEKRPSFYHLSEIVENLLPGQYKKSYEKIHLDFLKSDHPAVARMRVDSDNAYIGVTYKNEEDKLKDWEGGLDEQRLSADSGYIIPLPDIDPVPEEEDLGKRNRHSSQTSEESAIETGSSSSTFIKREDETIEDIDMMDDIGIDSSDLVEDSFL
- Assay notes: PDGFRα kinase enzyme assay (Promega PDGFRα Kinase Enzyme System, ADP-Glo)
- Type: biochemical
- Particulars: 11-point dose response, 10,000 nM to 0.169 nM; 150 uM ATP; BLQ = below limit of quantitation; read-out: IC50 Values on PDGFRα Kinase Inhibition, IC50
pIC50: −log10 of the molar value.
Entries and their measured pIC50 follow.
Measured endpoint: pIC50

Compound: Cn1cc(-c2ccc3c(N4CCN(c5ncc(CN6CCc7ccccc76)cn5)CC4)cnn3c2)cn1
Readout relation: =
Readout number: 6.51

Compound: Cn1cc(-c2ccc3c(N4CCN(c5ncc(Cc6ccc(Cl)cc6)cn5)CC4)cnn3c2)cn1
Readout relation: =
Readout number: 6.17

Compound: Cn1cc(-c2ccc3c(N4CCN(c5ncc(Cc6cscn6)cn5)CC4)cnn3c2)cn1
Readout relation: =
Readout number: 6.15

Compound: Cn1cc(-c2ccc3c(N4CCN(C(=O)N5CCCCC5)CC4)cnn3c2)cn1
Readout relation: =
Readout number: 6.46

Compound: Cn1cc(-c2ccc3c(C4=CCC(C(=O)OCc5ccccc5)C4)cnn3c2)cn1 (centres unmarked)
Readout relation: =
Readout number: 5.84

Compound: Cn1cc(-c2ccc3c(N4CCN(c5ncc(CC6CCOCC6)cn5)CC4)cnn3c2)cn1
Readout relation: =
Readout number: 5.91

Compound: C[C@@H](OC(=O)N1CCCN(c2cnc3nc(-c4cnn(C)c4)ccn23)CC1)c1ccccc1
Readout relation: <
Readout number: 5.00

Compound: Cn1cc(-c2ccc3c(N4CCN(c5ncc(Cc6cccnc6)cn5)CC4)cnn3c2)cn1
Readout relation: =
Readout number: 5.94

###

- Measured target: PDGFRα (Homo sapiens (Human), UniProt P16234)
- Assay notes: PDGFRα kinase enzyme assay (Promega PDGFRα Kinase Enzyme System, ADP-Glo)
- Type: biochemical
- Particulars: 11-point dose response, 10,000 nM to 0.169 nM; 150 uM ATP; BLQ = below limit of quantitation; read-out: IC50 Values on PDGFRα Kinase Inhibition, IC50
pIC50: −log10 of the molar value.

Smiles repr: Cn1cc(-c2cc3ncc(N4CCCN(c5ncc(Cc6ccccc6)cn5)CC4)n3cn2)cn1
Measured target: PDGFRα (Homo sapiens (Human), UniProt P16234)
Readout relation: <
pIC50: 5.00

Smiles repr: Cn1cc(-c2ccc3c(N4CCN(C(=O)OC(C)(C)C)CC4=O)cnn3c2)cn1
Measured target: PDGFRα (Homo sapiens (Human), UniProt P16234)
Readout relation: <
pIC50: 5.00

Smiles repr: Cn1cc(-c2ccc3c(N4CCN(C(=O)OC(C)(C)C)CC4)cnn3n2)cn1
Measured target: PDGFRα (Homo sapiens (Human), UniProt P16234)
Readout relation: =
pIC50: 5.86

Smiles repr: C[C@@H](OC(=O)N1CCN(c2cnc3cc(-c4cnn(C)c4)ncn23)CC1)c1ccccc1
Measured target: PDGFRα (Homo sapiens (Human), UniProt P16234)
Readout relation: <
pIC50: 5.00

Smiles repr: Cn1cc(-c2ccc3c(-c4ccn(-c5ncc(Cc6ccccc6)cn5)c4)cnn3c2)cn1
Measured target: PDGFRα (Homo sapiens (Human), UniProt P16234)
Readout relation: =
pIC50: 6.03

Smiles repr: CC(C)Cc1cnc(N2CCN(c3cnn4cc(-c5cnn(C)c5)ccc34)CC2)nc1
Measured target: PDGFRα (Homo sapiens (Human), UniProt P16234)
Readout relation: =
pIC50: 5.28

Smiles repr: C=C(c1ccc(F)cc1)c1cnc(N2CCN(c3cnn4cc(-c5cnn(C)c5)ccc34)CC2)nc1
Measured target: PDGFRα (Homo sapiens (Human), UniProt P16234)
Readout relation: =
pIC50: 5.50

Smiles repr: CC(C)(C)OC(=O)N1CCN(c2cnn3cc(-c4cnn(CCCN5CCOCC5)c4)ccc23)CC1
Measured target: PDGFRα (Homo sapiens (Human), UniProt P16234)
Readout relation: =
pIC50: 6.16

Smiles repr: Cn1cc(-c2ccc3c(N4CCN(C(=O)CCc5ccccc5)CC4)cnn3c2)cn1
Measured target: PDGFRα (Homo sapiens (Human), UniProt P16234)
Readout relation: =
pIC50: 5.40

Smiles repr: Cn1cc(-c2ccc3c(N4CCC(c5ncc(Cc6ccccc6)cn5)CC4)cnn3c2)cn1
Measured target: PDGFRα (Homo sapiens (Human), UniProt P16234)
Readout relation: =
pIC50: 5.09

Smiles repr: CC(C)(C)OC(=O)N1CCCN(c2cnc3cc(-c4cccnc4)ncn23)CC1
Measured target: PDGFRα (Homo sapiens (Human), UniProt P16234)
Readout relation: <
pIC50: 5.00

Smiles repr: Cn1cc(-c2ccc3c(N4CCN(c5ncc(Cc6c[nH]c7ccccc67)cn5)CC4)cnn3c2)cn1
Measured target: PDGFRα (Homo sapiens (Human), UniProt P16234)
Readout relation: =
pIC50: 5.96

Smiles repr: Cn1cc(-c2ccc3c(N4CCN(c5ncc(Cc6ccsc6)cn5)CC4)cnn3c2)cn1
Measured target: PDGFRα (Homo sapiens (Human), UniProt P16234)
Readout relation: =
pIC50: 6.86

Smiles repr: CC(C)(C)OC(=O)N1CCN(c2cnn3cc(-c4cccc(F)c4)ccc23)CC1
Measured target: PDGFRα (Homo sapiens (Human), UniProt P16234)
Readout relation: <
pIC50: 5.00

Smiles repr: CCCc1ccc2c(N3CCN(C(=O)OC(C)(C)C)CC3)cnn2c1
Measured target: PDGFRα (Homo sapiens (Human), UniProt P16234)
Readout relation: <
pIC50: 5.00

Smiles repr: [2H]C1([2H])N(C(=O)O[C@H](C)c2ccc(Cl)cc2)C([2H])([2H])C([2H])([2H])N(c2cnn3cc(-c4cnn(C)c4)ccc23)C1([2H])[2H]
Measured target: PDGFRα (Homo sapiens (Human), UniProt P16234)
Readout relation: =
pIC50: 9.25

###

- Test system: Oligodendrocyte progenitor cells (OPCs)
- Assay notes: In vitro OPC differentiation assay, GPR17 expression (immunocytochemistry)
- Particulars: 3 μM (10× concentration, final 0.3 μM); 72 hours; fold change over vehicle
Measured endpoint: GPR17 Fold Induction (Over Vehicle; 3 μM)

Compound: CC(O)C(O)c1cnc(N2CCN(c3cnn4cc(-c5cnn(C)c5)ccc34)CC2)nc1 (centres unmarked)
Readout number: 4.95
--
Compound: C[C@@H](OC(=O)N1CCN(c2cnn3cc(-c4cnn(C)c4)ccc23)CC1)c1ccncc1
Readout number: 7.44
--
Compound: Cn1cc(-c2ccc3c(C(O)CCc4ncc(Cc5ccccc5)cn4)cnn3c2)cn1 (centres unmarked)
Readout number: 1.43
--
Compound: Cn1cc(-c2ccc3c(N4CCN(c5ncc(Cc6ccccc6)cn5)CC4)cnn3n2)cn1
Readout number: 10.86
--
Compound: Cn1cc(-c2ccc3c(N4CCN(C(=O)OCc5ccc(Cl)cc5)CC4)cnn3c2)cn1
Readout number: 9.23
--
Compound: Cn1cc(-c2ccc3c(N4CCC(c5ncc(Cc6ccccc6)cn5)CC4)cnn3c2)cn1
Readout number: 7.82
--
Compound: Cn1cc(-c2ccc3c(N4CCN(c5ncc(Cc6ccoc6)cn5)CC4)cnn3c2)cn1
Readout number: 9.79
--
Compound: C[C@@H](OC(=O)N1CCN(c2cnn3cc(-c4cnn(C)c4)ccc23)CC1)c1ccccc1
Readout number: 13.76

###

- Tested on: Oligodendrocyte progenitor cells (OPCs)
- Assay notes: In vitro OPC differentiation assay, GPR17 expression (immunocytochemistry)
- Particulars: 3 μM (10× concentration, final 0.3 μM); 72 hours; fold change over vehicle
Reported GPR17 Fold Induction (Over Vehicle; 3 μM) values for the following compounds.
Measured endpoint: GPR17 Fold Induction (Over Vehicle; 3 μM)

Compound: Cn1cc(-c2ccc3c(N4CCN(C(=O)OC(C)(C)C)CCC4=O)cnn3c2)cn1
Result: 0.96

Compound: Cn1cc(-c2cnc3c(N4CCN(C(=O)OC(C)(C)C)CC4)cnn3c2)cn1
Result: 1.46

Compound: Cn1cc(-c2ccc3c(N4CCN(c5ncc(Cc6ccccc6)o5)CC4)cnn3c2)cn1
Result: 2.45

Compound: Cn1cc(-c2ccc3c(N4CCN(C(=O)N5CCC[C@@H]5c5ccc(Cl)cc5)CC4)cnn3c2)cn1
Result: 5.36

Compound: C[C@@H](NS(=O)(=O)N1CCN(c2cnn3cc(-c4cnn(C)c4)ccc23)CC1)c1ccc(Cl)cc1
Result: 7.29

Compound: CN(Cc1ccccc1)S(=O)(=O)N1CCN(c2cnn3cc(-c4cnn(C)c4)ccc23)CC1
Result: 4.57

Compound: Cn1cc(-c2ccc3c(N4CC=C(c5ncc(Cc6ccccc6)cn5)CC4)cnn3c2)cn1
Result: 1.24

Compound: Cn1cc(-c2ccc3c(N4CCN(C(=O)OCCC5CCOCC5)CC4)cnn3c2)cn1
Result: 6.37

Compound: Cn1cc(-c2cn3ncc(N4CCN(c5ncc(Cc6ccccc6)cn5)CC4)c3cn2)cn1
Result: 6.13

Compound: [2H]C1([2H])N(C(=O)O[C@H](C)c2ccc(Cl)cc2)C([2H])([2H])C([2H])([2H])N(c2cnn3cc(-c4cnn(C)c4)ccc23)C1([2H])[2H]
Result: 10.47

Compound: Cn1cc(-c2ccc3c(N4CCN(C(=O)OCC(C)(C)C)CC4)cnn3c2)cn1
Result: 4.12

Compound: CC(C)(C)OC(=O)N1CCN(c2cnn3cc(-c4cncn4CCCN4CCOCC4)ccc23)CC1
Result: 1.03

Compound: CN(CCN(C)c1cnc2nc(-c3cnn(C)c3)ccn12)C(=O)OC(C)(C)C [Compound 96]
Result: 0.50

Compound: Cn1cc(-c2ccc3c(N4CCN(c5ncc(Cc6ncon6)cn5)CC4)cnn3c2)cn1
Result: 2.96

Compound: CC(C)(C)OC(=O)N1CCCN(c2cnc3nc(C4CCOC4)ccn23)CC1 (stereo not shown)
Result: 0.58

Compound: Cn1cc(-c2ccc3c(N4CCN(c5ncccn5)CC4)cnn3c2)cn1
Result: 5.65
